Source: a melting point compilation (Tetko et al.)

Some compounds, each annotated with its measured melting point.
assay.metric: melting point

> print(dat)
                compound.smiles         result
1     Cc1nc2n(c1CN1CCNCC1)CCCC2  111 to 113 °C
2  O=C(O)c1ccn(-c2c(F)cccc2F)n1  179 to 181 °C
3       Clc1ccc(NCCc2ccccc2)nn1  159 to 161 °C
4           CCOCCOc1c(N)cccc1Cl    65 to 67 °C

###

assay.metric: melting point

> print(dat)
                                    compound         result
 1            O=[N+]([O-])c1ccc(Br)c2c1CNCC2    81 to 83 °C
 2                     Cc1cccc(-n2nnnc2S)c1C  115 to 117 °C
 3             COc1ccc(NC(C)=O)cc1S(N)(=O)=O  220 to 222 °C
 4               CCS(=O)(=O)c1ccc(C(=O)O)cc1  216 to 218 °C
 5                    Clc1ccc(NCc2ccccc2)cc1    47 to 49 °C
 6                CC(C)(C)NC(=O)Cc1ccc(N)cc1  113 to 115 °C
 7                  CCCn1cc(C(=O)O)c2ccccc21  155 to 157 °C
 8                       NCCc1cc2ccccc2[nH]1    95 to 97 °C
 9                   CSC(=C(C#N)C#N)N1CCOCC1  143 to 145 °C
10                 Cc1nc(-c2ccccn2)sc1C(=O)O  235 to 237 °C
11                CCOC(=O)c1csc(-c2ccccn2)n1    67 to 69 °C
12              CC(C)(C)c1ccc(OCCCC(=O)O)cc1    53 to 55 °C
13                O=C(C(=O)c1ccccn1)c1ccccn1  154 to 156 °C
14                  O=C(O)c1cccnc1OCC(F)(F)F  122 to 124 °C
15            Cn1ccnc1C(=O)c1cc(S)nc2ccccc12  250 to 252 °C
16  Cc1ccc(C(C)C)c(Oc2ccc(C=O)cc2[N+](=O)[O-])c1  109 to 111 °C
17              O=C(O)Cc1ccn(-c2ccc(F)cc2)n1    97 to 99 °C
18                        Cc1cc(Br)oc1C(=O)O  169 to 171 °C
19  CC(Cl)C(=O)Nc1ccc([N+](=O)[O-])cc1C(F)(F)F (centres undefined)  183 to 185 °C
20                           CC(C)NC(C)(C)CO    42 to 44 °C
21    FC(F)Oc1ccc(CNC23CC4CC(CC(C4)C2)C3)cc1  283 to 285 °C
22                           CNc1ccc(Br)cc1N    49 to 51 °C
23          CN(C)S(=O)(=O)c1ccc(C(=O)CBr)cc1    90 to 92 °C
24                  CS(=O)(=O)c1ccc(OCCN)cc1    63 to 65 °C
25                 CN(C)C(=O)c1ccc(C=O)[nH]1  165 to 167 °C
26                       Sc1ncn(-c2ccccc2)n1  173 to 175 °C
27                 COC(=O)c1cccc(-c2ncno2)c1  101 to 103 °C
28             CS(=O)(=O)c1cccc(NC(=O)CCl)c1  104 to 106 °C
29                CCc1nn(C)c(CC)c1S(N)(=O)=O  177 to 179 °C
30                      O=C(O)CCc1ccc(F)cc1F  108 to 110 °C
31                      CCCN1C(=O)NC(=O)C1=O  105 to 107 °C
32             COc1ccccc1-c1nnc(SCC(=O)O)n1N  181 to 183 °C
33                    Cc1cc2ccccc2c(=O)[nH]1  199 to 201 °C
34          Cn1ccc(S(=O)(=O)NCC2(N)CCCCC2)c1    94 to 96 °C
35                 CCOC(=O)c1cc(Br)cc(Cl)c1N    49 to 51 °C
36                       Cc1c(CCC(=O)O)cnn1C  139 to 141 °C
37                 O=C(O)CCc1nc2cc(Cl)ccc2s1  145 to 147 °C
38             CN(C)C(=O)c1ccc(NC(=O)CCl)cc1  177 to 179 °C
39                   NC(=O)Nc1ccc2c(c1)OCCO2  159 to 161 °C
40                      O=C(O)CCCc1ccc(Br)s1    54 to 58 °C
41                        NCc1cc2ccccc2[nH]1    71 to 73 °C
42                Cc1nn(-c2ccccc2)c(N)c1SC#N  108 to 110 °C
43  NS(=O)(=O)NCC1CCCNC1 (centres undefined)  132 to 134 °C
44                 COc1ccc(CCl)cc1S(C)(=O)=O  118 to 120 °C
45        NS(=O)(=O)c1cc(Br)c(Cl)c(C(=O)O)c1  219 to 221 °C
46                   Cc1ccc(-n2nc(C)cc2N)nn1  119 to 121 °C
47                       NC(=O)COc1cccc(O)c1  134 to 136 °C
48                       Cn1ccnc1-c1cc(N)on1  178 to 180 °C
49  O=C1NCC(=O)N2CCCCC12 (centres undefined)  153 to 155 °C
